assay: Volume of distribution at steady state in Sprague-Dawley rat at 1 mg/kg, iv and 5 mg/kg, po; format: ADME, organism-based; conditions: in vivo, read-out: Vdss
parameter: Vd (L/kg)
Value expressed in L/kg; do not type the unit.

Could you tell me which Vd is on file for CN(C)[C@H]1CC[C@H](NC(=O)[C@@H](Cc2ccc(Cl)cc2)NC(=O)C2(c3ccc(F)cc3)CC2)CC1 ?
11.8

---

assay: Cmax in Sprague-Dawley rat at 1 mg/kg, iv and 5 mg/kg, po; assay type: ADME, organism-based; details: in vivo
parameter: Cmax (ng/mL)
Value expressed in ng/mL; do not type the unit.

Could you tell me which Cmax is on file for CN(C)[C@H]1CC[C@H](NC(=O)[C@@H](Cc2ccc(Cl)cc2)NC(=O)C2(c3ccc(F)cc3)CC2)CC1 ?
35

Where do these numbers come from? They come from ChEMBL document CHEMBL1806383.
